experiment: Circular dichroism helicity determination; type: physicochemical; settings: percent helicity; free, unbound peptide 5 μM in 5 mM phosphate buffer, pH 7.4, 37° C.
No end group written: not given here.
The substances listed here are annotated with their He (%) free.
Please state the figure in %; there is no need to write the unit.

# input I'd like to know its He (%) free. The substance in question is PVLDEFREKLNEALEALKQKLK [peptide 94, reference compound]
# output 18

###

molecular target: LCAT (purified from human plasma) (Homo sapiens, UniProt P04180); construct: from tissue; host or cells: human plasma; assay: LCAT activation assay; format: biochemical; details: LCAT activation as compared with native human ApoA-I (= 100%), equivalent masses
Sequence (P04180 25-440): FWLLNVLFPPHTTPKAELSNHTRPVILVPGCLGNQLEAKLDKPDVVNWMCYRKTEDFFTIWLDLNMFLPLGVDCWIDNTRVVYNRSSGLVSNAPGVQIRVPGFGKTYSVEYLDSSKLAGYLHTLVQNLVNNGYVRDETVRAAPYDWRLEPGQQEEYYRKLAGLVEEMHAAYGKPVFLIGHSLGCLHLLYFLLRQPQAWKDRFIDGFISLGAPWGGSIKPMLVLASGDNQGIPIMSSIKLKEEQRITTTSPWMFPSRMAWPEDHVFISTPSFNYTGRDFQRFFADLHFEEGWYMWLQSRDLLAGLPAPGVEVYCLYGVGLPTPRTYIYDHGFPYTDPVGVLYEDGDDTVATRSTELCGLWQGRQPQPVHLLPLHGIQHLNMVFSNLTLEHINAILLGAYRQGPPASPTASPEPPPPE
No end group written: not given here.
property-label: ACTIVITY (%) LCAT

Solved entries:
>>> measured("PVLELFENLLERLLDALQKKLK [peptide 146]")
"86%"
>>> measured("Ac-NVLDLFRELLEELKQKLK-NH2 [compound 200]")
"75%"
>>> measured("PVLDLFRELLNELLEGLKQKLK [compound 22]")
"54%"
>>> measured("EWLKAFYEKVLEKLKELF [peptide 248, reference compound]")
"3%"
>>> measured("AVLELFENLLERLLDALQKKLK [peptide 153]")
"49%"
>>> measured("LDDLLQKWAEAFNQLLKK [peptide 237, reference compound]")
"11%"
>>> measured("PLFRELLNELLEALKQKLK [compound 55]")
"19%"
>>> measured("PVLDAFRELLEALAQLKK [compound 223]")
"8%"

# input Look up ACTIVITY (%) LCAT: PVLELFLNLWERLLDALQKKLK [peptide 155]
# output 38%

# input Reported ACTIVITY (%) LCAT, substance PVLELFENLLERLFDALQKKLK [peptide 147] : ____
# output 76%

# input Look at this substance and give its reported ACTIVITY (%) LCAT. PLLELFKELLQELLEALKQKLK [peptide 23]
# output 54%

# input Requested field: ACTIVITY (%) LCAT. Item: Ac-PLLDLFKELLEELKQKLK-NH2 [compound 201]
# output 74%

# input ACTIVITY (%) LCAT for PVLDEFREKLNEALEALKQKLK [peptide 94, reference compound] ?
# output 5%
